- Test system: PBMC
- protocolDetails: Antiinflammatory activity in LPS-induced human PBMC cells assessed as IL-2 release at 100 uM after 24 hrs by luminex based bead assay relative to control
- Format: functional
Recorded Activity values for a group of compounds are listed next.
Your answer is read as %, so omit the unit and give the number.

Past entries and their recorded results:
| compound | Activity [%] |
| --- | --- |
| C=C(C)C(O)Cc1c(O)cc2oc(-c3ccc(O)cc3)cc(=O)c2c1O (centres undefined) | 57.64 |
| COc1c(O)cc2oc(-c3ccc(O)c(O)c3)c(O[C@@H]3O[C@@H](C)[C@H](O)[C@@H](O)[C@H]3O)c(=O)c2c1O | 57.6 |
| COc1cc(O)c2c(=O)cc(-c3ccc(O)c(OC)c3)oc2c1 [VELUTIN] | 57.6 |
| CC(C)=CCc1c(O)cc2oc(-c3ccc(O)cc3)cc(=O)c2c1O | 17.72 |
| C=C(C)C(O)Cc1c(OC)cc2c(c1O)C(=O)C[C@@H](c1ccc(O)cc1)O2 (some centres undefined) | 17.72 |

Inquiry: Requested field: Activity. Item: O=c1cc(-c2ccc(O)c(O)c2)oc2cc(O)cc(O)c12 [LUTEOLIN]
Reply text: 57.6

Inquiry: Again, but for `COc1c2c(c(/C=C\C(C)(C)O)c3oc(-c4ccccc4)cc(=O)c13)OC(C)(C)C=C2`
Reply text: 57.6

Inquiry: Again, but for CC1(C)C=Cc2c(cc(O)c3c(=O)cc(-c4ccc(O)cc4)oc23)O1 [ATALANTOFLAVONE]
Reply text: 57.64

Inquiry: Again, but for `COc1cc2oc(-c3ccc(O)c(O)c3)c(O[C@@H]3O[C@@H](C)[C@H](O)[C@@H](O)[C@H]3O)c(=O)c2c(O)c1OC`
Reply text: 17.72

Inquiry: Again, but for O=c1cc(-c2ccc(O)cc2)oc2cc(O)cc(O)c12 [APIGENIN]
Reply text: 57.6

Inquiry: Again, but for `C=C(C)/C=C/c1c2c(c(OC)c3c(=O)cc(-c4ccccc4)oc13)C=CC(C)(C)O2`
Reply text: 57.6

Inquiry: Again, but for `COc1cc2c(c(O)c1CC=C(C)C)C(=O)C[C@@H](c1ccc(O)cc1)O2`
Reply text: 57.64

Inquiry: Again, but for `COc1cc([C@@H]2CC(=O)c3cc(OC)c(O)cc3O2)ccc1O`
Reply text: 57.6
